Reported self-cleavage values are given for each entry in this list.
B1: CPEB3 Ribozyme (parent)
chain: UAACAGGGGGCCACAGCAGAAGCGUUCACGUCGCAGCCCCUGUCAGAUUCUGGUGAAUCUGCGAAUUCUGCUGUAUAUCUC

- Variants of: B1
- ASSAY NAME: self-cleavage, relative activity (ratio to wild type); higher = more cleavage; in vitro, sequencing
Number, no unit, nothing else.

Worked cases, answers included:
[[record]]
residue_change = "U66G U69C"
measured_value = 0.31

[[record]]
residue_change = "C39U U78A"
measured_value = 0.89

[[record]]
residue_change = "A3U A65U"
measured_value = 0.14


## Task Field request: self-cleavage | item: G24A C32A
## Result 0.29

## Task For the variant shown here, A47G U67G , give the reported self-cleavage.
## Result 0.34

## Task Look up self-cleavage: C29U A35G
## Result 1.16

## Task Return reported self-cleavage; argument: C17G A56G
## Result 0.38

## Task Item G10U U49A has what recorded self-cleavage?
## Result 0.31

## Task Record request: self-cleavage value, item U43G C44U
## Result 0.14

## Task What value of self-cleavage has been recorded for this entry: U58C C81G
## Result 0.82

## Task For U1A U78A , what is its reported self-cleavage?
## Result 0.99

## Task Look up self-cleavage: C17U U66C
## Result 0.23
